These entries and their values trace back to ChEMBL document CHEMBL1129023.

- Test system: Mus musculus
- assayComment: Compound was evaluated for the percent increase in life span against M5076 sarcoma in mice at a sc dose of 200 mg/kg/day.
- Type: functional
- testConditions: route subcutaneous

[
  {
    "compound": "N#C[C@H]1[C@H](O)[C@@H](CO)O[C@H]1n1ccc(N)nc1=O [TAS-109]",
    "ILS at 200 mg/kg/day [%]": -7
  },
  {
    "compound": "CCCCCCCCCCCCCCCC(=O)OCC(COP(=O)([O-])OC[C@H]1O[C@@H](n2ccc(N)nc2=O)[C@@H](C#N)[C@@H]1O)OC(=O)CCCCCCCCCCCCCCC.[Na+] (stereo partly specified)",
    "ILS at 200 mg/kg/day [%]": 38
  },
  {
    "compound": "CCCCCCCCCCCCCCCCCC(=O)OCC(COP(=O)([O-])OC[C@H]1O[C@@H](n2ccc(N)nc2=O)[C@@H](C#N)[C@@H]1O)OC(=O)CCCCCCCCCCCCCCCCC.[Na+] (stereo partly specified)",
    "ILS at 200 mg/kg/day [%]": 49
  },
  {
    "compound": "CCCCCCCC/C=C\\CCCCCCCC(=O)OCC(COP(=O)([O-])OC[C@H]1O[C@@H](n2ccc(N)nc2=O)[C@@H](C#N)[C@@H]1O)OC(=O)CCCCCCC/C=C\\CCCCCCCC.[Na+] (stereo partly specified)",
    "ILS at 200 mg/kg/day [%]": -12
  },
  {
    "compound": "CCCCCCCCCCCCCC(=O)OCC(COP(=O)([O-])OC[C@H]1O[C@@H](n2ccc(N)nc2=O)[C@@H](C#N)[C@@H]1O)OC(=O)CCCCCCCCCCCCC.[Na+] (stereo partly specified)",
    "ILS at 200 mg/kg/day [%]": 22
  },
  {
    "compound": "CCCCC/C=C\\C/C=C\\CCCCCCCC(=O)OCC(COP(=O)([O-])OC[C@H]1O[C@@H](n2ccc(N)nc2=O)[C@@H](C#N)[C@@H]1O)OC(=O)CCCCCCC/C=C\\C/C=C\\CCCCC.[Na+] (stereo partly specified)",
    "ILS at 200 mg/kg/day [%]": 10
  }
]

###

Consider the following molecules and their measured ILS at 300 mg/kg/day readings.
- Test system: Mus musculus
- assayComment: Compound was evaluated for the percent increase in life span against M5076 sarcoma in mice at a sc dose of 300 mg/kg/day.
- Type: functional
- testConditions: route subcutaneous
readoutLabel: ILS at 300 mg/kg/day

[
  {
    "molecule": "N#C[C@H]1[C@H](O)[C@@H](CO)O[C@H]1n1ccc(N)nc1=O",
    "targetOrSystem": "Mus musculus",
    "result": "14%"
  },
  {
    "molecule": "CCCCCCCCCCCCCCCCCC(=O)OCC(COP(=O)([O-])OC[C@H]1O[C@@H](n2ccc(N)nc2=O)[C@@H](C#N)[C@@H]1O)OC(=O)CCCCCCCCCCCCCCCCC.[Na+] (stereo partly drawn)",
    "targetOrSystem": "Mus musculus",
    "result": "60%"
  },
  {
    "molecule": "CCCCCCCCCCCCCC(=O)OCC(COP(=O)([O-])OC[C@H]1O[C@@H](n2ccc(N)nc2=O)[C@@H](C#N)[C@@H]1O)OC(=O)CCCCCCCCCCCCC.[Na+] (stereo partly drawn)",
    "targetOrSystem": "Mus musculus",
    "result": "0%"
  }
]
